target: SpCas9 (Streptococcus pyogenes serotype M1, UniProt Q99ZW2); assay: eGFP disruption assay, SpCas9, U2OS.eGFP.PEST cells; format: cell-based; details: replicate 1
Sequence (Q99ZW2 whole entry): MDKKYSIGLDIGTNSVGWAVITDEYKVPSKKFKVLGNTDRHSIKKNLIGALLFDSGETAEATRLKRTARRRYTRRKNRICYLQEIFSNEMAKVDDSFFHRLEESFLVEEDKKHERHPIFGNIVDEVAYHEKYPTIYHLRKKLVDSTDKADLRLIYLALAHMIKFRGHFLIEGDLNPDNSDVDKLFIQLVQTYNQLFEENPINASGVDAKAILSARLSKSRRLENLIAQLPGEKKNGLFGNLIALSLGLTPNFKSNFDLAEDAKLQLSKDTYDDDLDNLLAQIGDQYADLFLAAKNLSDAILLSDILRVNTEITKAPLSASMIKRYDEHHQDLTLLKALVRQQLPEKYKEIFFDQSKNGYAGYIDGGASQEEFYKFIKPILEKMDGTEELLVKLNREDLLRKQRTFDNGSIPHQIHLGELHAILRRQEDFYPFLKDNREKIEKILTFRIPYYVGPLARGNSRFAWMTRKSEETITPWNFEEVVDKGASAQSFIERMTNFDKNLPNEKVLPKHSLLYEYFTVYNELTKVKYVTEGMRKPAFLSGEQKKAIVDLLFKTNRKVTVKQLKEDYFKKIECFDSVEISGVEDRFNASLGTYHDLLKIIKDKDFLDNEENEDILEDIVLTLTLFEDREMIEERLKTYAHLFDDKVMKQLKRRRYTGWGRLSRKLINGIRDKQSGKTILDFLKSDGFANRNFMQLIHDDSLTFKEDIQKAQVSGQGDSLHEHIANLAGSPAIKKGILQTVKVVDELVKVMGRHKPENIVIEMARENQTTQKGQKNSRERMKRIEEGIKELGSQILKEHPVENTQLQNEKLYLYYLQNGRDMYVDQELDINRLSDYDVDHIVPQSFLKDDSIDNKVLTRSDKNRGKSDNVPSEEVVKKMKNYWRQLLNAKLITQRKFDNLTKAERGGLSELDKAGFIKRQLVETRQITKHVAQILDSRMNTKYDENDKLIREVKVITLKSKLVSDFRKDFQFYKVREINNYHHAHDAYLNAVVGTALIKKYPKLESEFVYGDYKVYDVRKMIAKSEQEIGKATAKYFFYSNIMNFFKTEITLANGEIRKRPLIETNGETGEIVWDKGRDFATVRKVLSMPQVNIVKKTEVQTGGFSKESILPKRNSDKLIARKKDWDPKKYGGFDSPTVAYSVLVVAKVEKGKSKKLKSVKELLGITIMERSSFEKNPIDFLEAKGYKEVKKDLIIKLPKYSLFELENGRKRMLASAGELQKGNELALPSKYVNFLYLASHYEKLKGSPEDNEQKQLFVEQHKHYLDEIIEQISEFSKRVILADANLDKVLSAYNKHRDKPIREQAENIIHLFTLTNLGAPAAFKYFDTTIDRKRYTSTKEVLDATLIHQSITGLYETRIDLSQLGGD
Numbered stars: 1 amine (or outer) side, 2 acyl side, 3 side chain; on linkers, the order of the positions; unused ones are H or OH. Bridge positions count the residues as written; N and C are the ends. Square brackets hold non-standard residues; d marks the D form. Peptide text beside a SMILES is read from it. I, II: the chains in the order shown. Actinocin(9to1) = Cc1c2oc3c(C)ccc(C(=O)[*:1])c3nc-2c(C(=O)[*:2])c(N)c1=O; NMeV = CN[C@H](C(=O)O)C(C)C; Sar = CNCC(=O)O
attribute measured: Normalized Z rep1
Give your answer as a number; write no unit.

## Task Quick one: Normalized Z rep1 of NC(=O)c1sc(=S)n2c1[nH]c(=O)c1ccc(Cl)cc12 ?
## Result −0.09

## Task # get_value(readout='Normalized Z rep1', item= O=C(NCc1ccc2c(c1)OCO2)c1cccc(Oc2cc(-c3ccccc3)ncn2)c1 )
## Result −0.11

## Task What does the data say about its Normalized Z rep1? Entry: CC(C)(C)OC(=O)NCCOc1ccc(S(=O)(=O)CCC(=O)Nc2nc(-c3ccncc3)cs2)cc1
## Result −0.10

## Task # lookup: Normalized Z rep1 of NC(=O)c1c(NC(=O)COCc2cc(-c3ccc4c(c3)OCO4)on2)sc2c1CCCC2
## Result −0.19

## Task Data request, read-out Normalized Z rep1, for Fc1ccc(-c2nn3c(-c4cnccn4)nnc3s2)cc1Br
## Result −0.16

## Task // lookup Normalized Z rep1 for Nc1c(C(=O)N2CCCCC2)sc(=S)n1Cc1ccccc1
## Result −0.22

## Task Fill in: Normalized Z rep1 of Fc1cccc(-c2nn3c(-c4ccc5ccccc5n4)nnc3s2)c1 is ___
## Result −0.57

## Task Reported Normalized Z rep1, molecule O=C(O)c1cc(N2CCCC2)ccc1NC(=O)C1CCCC1 : ____
## Result −0.26

## Task Tell me the measured Normalized Z rep1 of CC(C)CNC(=O)c1ccc(Oc2ccnc(-c3ccc(F)cc3)n2)cc1 , please.
## Result 0.00

## Task Param item = Cc1nn(-c2ccccc2)c(C)c1CCc1nn2c(-c3ccncc3)nnc2s1 ; retrieve measured Normalized Z rep1.
## Result −0.15

## Task Consider the molecule CN(C)S(=O)(=O)Nc1cnc(N2CCC(CCN3CCCCC3)CC2)c(C(=O)O)c1 and give its measured Normalized Z rep1.
## Result −0.18

## Task Recorded Normalized Z rep1 for Cc1c2oc3c(C)ccc(C(=O)N[C@@H]4C(=O)N[C@H](C(C)C)C(=O)N5CCC[C@H]5C(=O)N(C)CC(=O)N(C)[C@@H](C(C)C)C(=O)O[C@@H]4C)c3nc-2c(C(=O)N[C@@H]2C(=O)N[C@H](C(C)C)C(=O)N3CCC[C@H]3C(=O)N(C)CC(=O)N(C)[C@@H](C(C)C)C(=O)O[C@@H]2C)c(N)c1=O [SAM001246846] (I: T[dV]P[Sar][NMeV] / II: T[dV]P[Sar][NMeV]; ester I:1-I:C, II:1-II:C; linker I:N-II:N via Actinocin(9to1)) , please?
## Result −2.59

## Task Given the molecule CNS(=O)(=O)c1ccc2nc(NC(=O)c3ccc(N4C(=O)CCC4=O)cc3)sc2c1 , what is its reported Normalized Z rep1?
## Result −0.26

## Task Could you share which Normalized Z rep1 value was measured for Cc1ncc(-c2ccnc(Nc3ccc(S(C)(=O)=O)cc3)n2)n1C(C)C ?
## Result −1.68

## Task Normalized Z rep1 for c1ccc(Cc2nn3c(-c4cccnc4)nnc3s2)cc1 ?
## Result −0.11

## Task Quick check: Normalized Z rep1 of Cn1nc(-c2ccccc2F)c2cc(C(=O)Oc3ccc4cnccc4c3)sc21 ?
## Result −0.35

## Task Which measured Normalized Z rep1 value corresponds to COc1ccc(-c2ccc3ncc4c(c3c2)n(-c2ccc(N3CCNCC3)c(C(F)(F)F)c2)c(=O)n4C)cn1.O=C(O)C=CC(=O)O ?
## Result −3.98

## Task Which value of Normalized Z rep1 has been reported for COc1ccc(-c2nn3c(-c4ccc5ccccc5n4)nnc3s2)cc1OC in the records?
## Result −0.03

## Task Entry under review: COc1ccc(S(=O)(=O)CCC(=O)Nc2nc(-c3ccncc3)cs2)cc1 . Reported Normalized Z rep1?
## Result −0.26

## Task Please give the measured Normalized Z rep1 for this molecule: O=C(NCc1ccc(F)cc1)c1ccc(Oc2ccnc(-c3cccc(F)c3)n2)cc1
## Result −0.03

## Task Look up Normalized Z rep1 for this molecule: Fc1ccc(OCc2nn3c(-c4ccccn4)nnc3s2)cc1
## Result −0.49

Cited source: patent US20240115557A1
